# TESTED TARGET: HPK1 (Homo sapiens, UniProt Q92918)
# Construct: A HiBiT tag was introduced by CRISPR on the N terminus of HPK1 in Jurkat cells; host or cells: Jurkat (ATCC TIB-152), monoclonal CRISPR HiBiT knock-in line
# Sequence (Q92918 whole entry): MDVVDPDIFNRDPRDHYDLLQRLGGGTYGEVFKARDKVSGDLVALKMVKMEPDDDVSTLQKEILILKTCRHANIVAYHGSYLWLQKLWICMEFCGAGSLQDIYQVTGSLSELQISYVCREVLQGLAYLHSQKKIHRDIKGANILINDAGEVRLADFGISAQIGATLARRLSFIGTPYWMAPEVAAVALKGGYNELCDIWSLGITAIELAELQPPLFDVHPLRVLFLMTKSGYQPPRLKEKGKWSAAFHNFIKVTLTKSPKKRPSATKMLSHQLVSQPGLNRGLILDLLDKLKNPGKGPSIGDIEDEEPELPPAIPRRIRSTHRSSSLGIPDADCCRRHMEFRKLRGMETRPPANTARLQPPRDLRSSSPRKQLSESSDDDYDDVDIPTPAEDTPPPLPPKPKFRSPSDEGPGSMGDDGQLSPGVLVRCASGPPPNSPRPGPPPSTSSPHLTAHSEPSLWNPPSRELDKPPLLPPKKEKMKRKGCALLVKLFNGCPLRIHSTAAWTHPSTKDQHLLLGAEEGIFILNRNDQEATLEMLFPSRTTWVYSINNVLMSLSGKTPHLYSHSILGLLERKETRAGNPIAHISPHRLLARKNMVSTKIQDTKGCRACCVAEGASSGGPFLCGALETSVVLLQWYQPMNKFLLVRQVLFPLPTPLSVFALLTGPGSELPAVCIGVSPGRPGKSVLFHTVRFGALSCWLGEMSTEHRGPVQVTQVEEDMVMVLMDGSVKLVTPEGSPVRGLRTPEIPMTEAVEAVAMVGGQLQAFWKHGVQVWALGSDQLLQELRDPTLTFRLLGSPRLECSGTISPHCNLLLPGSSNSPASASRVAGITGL
# ASSAY NAME: HPK1 Cellular HiBiT Degradation Assay
# Assay type: cell-based
# STATED CONDITIONS: HiBiT-tagged HPK1 Jurkat cells, 24 hours, 10 uM to 0.1 nM; Dmax = 100 minus lowest % HPK1 remaining vs DMSO vehicle
MEASURE: Dmax

For the compound shown here, Cc1cc(F)c(Nc2nc(-c3ccc4c(c3)N([C@H]3C[C@@H](N5CCCCC5)C3)C(=O)C43CCN(C(=O)C4CCN(C(=O)[C@H]5CC[C@H](Nc6cccc7c6C(=O)N(C6CCC(=O)NC6=O)C7=O)CC5)CC4)CC3)cc3ncn(C(C)C)c23)cc1C(=O)NC(C)C (stereo partly shown) [Example 60] , give the reported Dmax.
> 65%

Which Dmax is listed for Cc1cc(F)c(Nc2nc(-c3ccc4c(c3)N([C@H]3C[C@@H](N5CCCCC5)C3)C(=O)C43CCN(C(=O)c4ccn(C5CCN(Cc6cccc7c6C(=O)N(C6CCC(=O)NC6=O)C7=O)CC5)n4)CC3)cc3ncn(C(C)C)c23)cc1C(=O)NC(C)C (stereo partly shown) [Example 65] ?
45 to 65%

What value of Dmax has been reported for the following compound? Cc1cc(F)c(Nc2nc(-c3ccc4c(c3)N([C@H]3C[C@@H](N5CCCCC5)C3)C(=O)C43CCN(C(=O)c4ccc(N5CCN(c6cccc7c6C(=O)N(C6CCC(=O)NC6=O)C7=O)CC5)nc4)CC3)cc3ncn(C(C)C)c23)cc1C(=O)NC(C)C (stereo partly shown) [Example 83]
< 45%

// lookup Dmax for Cc1cc(F)c(Nc2nc(-c3ccc4c(c3)N([C@H]3C[C@@H](N5CCCCC5)C3)C(=O)C43CCN(C(=O)C4CCN(C(=O)C5CCN(c6ccc7c(c6)C(=O)N(C6CCC(=O)NC6=O)C7=O)CC5)C4)CC3)cc3ncn(C(C)C)c23)cc1C(=O)NC(C)C (stereo partly shown) [Example 40]
45 to 65%
